Target: recombinant GSK3β enzyme (human GSK3β) (Homo sapiens, UniProt P49841)
Construct: FLAG (N)
Sequence (P49841 whole entry): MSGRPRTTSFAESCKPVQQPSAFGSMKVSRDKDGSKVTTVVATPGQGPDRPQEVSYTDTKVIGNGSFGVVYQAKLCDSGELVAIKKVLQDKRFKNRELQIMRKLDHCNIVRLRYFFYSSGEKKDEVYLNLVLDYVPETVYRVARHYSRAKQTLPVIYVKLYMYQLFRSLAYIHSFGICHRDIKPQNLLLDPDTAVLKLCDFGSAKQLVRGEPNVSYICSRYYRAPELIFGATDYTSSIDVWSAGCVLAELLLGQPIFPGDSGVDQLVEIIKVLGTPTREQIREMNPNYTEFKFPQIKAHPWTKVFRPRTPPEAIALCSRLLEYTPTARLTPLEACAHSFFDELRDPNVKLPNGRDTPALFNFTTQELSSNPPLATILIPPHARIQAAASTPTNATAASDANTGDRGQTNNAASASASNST
Assay: Measurement of GSK3β inhibitory activity
Conditions: glycogen synthase peptide substrate, Kinase Glo luminescence, read-out: IC50 (concentration of test compound needed for 50% inhibition of luminescent intensity), GSK3β inhibitory activity

>  <COMPOUND>
CC(C)NC(=O)c1n[nH]cc1NC(=O)c1ccc(F)cc1F

>  <IC50>
< 100 nM

$$$$
>  <COMPOUND>
O=C(Nc1c[nH]nc1C(=O)NCc1ccccc1)c1ccccc1

>  <IC50>
< 100 nM

$$$$
>  <COMPOUND>
CC(=O)Nc1cccc(C(=O)Nc2c[nH]nc2C(=O)NCCOC(C)C)c1

>  <IC50>
< 100 nM

$$$$
>  <COMPOUND>
Cc1cccc(C(=O)Nc2c[nH]nc2C(=O)NCCC#N)n1

>  <IC50>
< 100 nM

$$$$
>  <COMPOUND>
O=C(Nc1c[nH]nc1C(=O)NCc1ccccc1)c1ccc(Oc2ccccc2)cc1

>  <IC50>
394 nM

$$$$
>  <COMPOUND>
CCCN(CCC)S(=O)(=O)c1ccc(C(=O)Nc2c[nH]nc2C(=O)NC(C)C)cc1

>  <IC50>
171 nM

$$$$
>  <COMPOUND>
CC(=O)Nc1cccc(C(=O)Nc2c[nH]nc2C(=O)NCC(F)(F)F)c1

>  <IC50>
< 100 nM

$$$$
>  <COMPOUND>
CC(C)NC(=O)c1n[nH]cc1NC(=O)c1ccc(Oc2ccccc2)cc1

>  <IC50>
< 100 nM

$$$$
>  <COMPOUND>
CCOCC(=O)Nc1c[nH]nc1C(=O)NC(C)C

>  <IC50>
< 100 nM

$$$$

* * *

Biological target: recombinant GSK3β enzyme (human GSK3β) (Homo sapiens)
Construct: FLAG (N); made in house; host or cells: Sf-21 insect cells, recombinant baculovirus (pFASTBAC1 / BAC-TO-BAC)
Test: Measurement of GSK3β inhibitory activity
Assay type: biochemical
Details: glycogen synthase peptide substrate, Kinase Glo luminescence, read-out: IC50 (concentration of test compound needed for 50% inhibition of luminescent intensity), GSK3β inhibitory activity
pIC50: −log10 of the molar value.
Listing of recorded pIC50 by entry.

>  <COMPOUND>
CC(=O)Nc1cccc(C(=O)Nc2c[nH]nc2C(=O)NCCSc2ccccc2)c1

>  <pIC50>
> 7.00

$$$$
>  <COMPOUND>
O=C(Nc1c[nH]nc1C(=O)NCCc1ccccc1)c1ccc(OC(F)(F)F)cc1

>  <pIC50>
> 7.00

$$$$
>  <COMPOUND>
O=C(CC1CCCC1)Nc1c[nH]nc1C(=O)NCc1ccccc1

>  <pIC50>
6.99

$$$$
>  <COMPOUND>
CC(C)NC(=O)c1n[nH]cc1NC(=O)Cc1c[nH]c2ccccc12

>  <pIC50>
6.77

$$$$
>  <COMPOUND>
CC(=O)Nc1cccc(C(=O)Nc2c[nH]nc2C(=O)NCC(=O)c2ccccc2)c1

>  <pIC50>
> 7.00

$$$$
>  <COMPOUND>
CCCN(CCC)S(=O)(=O)c1ccc(C(=O)Nc2c[nH]nc2C(=O)NCCc2ccccc2)cc1

>  <pIC50>
6.31

$$$$
>  <COMPOUND>
O=C(Nc1c[nH]nc1C(=O)NC1CCCC1)c1cnccn1

>  <pIC50>
> 7.00

$$$$
>  <COMPOUND>
O=C(CCc1ccccc1)Nc1c[nH]nc1C(=O)NC1CCCC1

>  <pIC50>
> 7.00

$$$$
>  <COMPOUND>
O=C(NCCc1ccccc1)c1n[nH]cc1NC(=O)C1CCCCC1

>  <pIC50>
> 7.00

$$$$

Data provenance: patent US20090156582A1
